// provenance: patent US20170037110A1

- target_or_system: T1, HLA-A*02:01 (human)
- T1 construct: monomers captured on streptavidin plates; also called MHC class I
- experimental_protocol: UV peptide exchange ELISA
Provide the reported peptide exchange yield of each item.

State, in one line, measured peptide exchange yield of `YLNDLHEVLL`
≥ 75%

State, in one line, measured peptide exchange yield of `YLLEQIKLIEV`
≥ 75%

State, in one line, measured peptide exchange yield of `SVAEGRALMSV`
50 to 75%

State, in one line, measured peptide exchange yield of `SLAPGDVVRQV`
20 to 50%
